Where do these numbers come from? They come from ChEMBL document CHEMBL5303573.

# experiment-notes: The drug is tested on Clostridium ramosum strain: DSM1402 for biotransformation. The drug concentrations were measured before and after a 12-h incubation by liquid-chromatography-coupled mass spectrometry (LC–MS)
# measurement-setup: thomasclavelia ramosa, 2 µM
measurement-name: Bacterial Biotransformation

CN(C)CCc1c[nH]c2ccc(CS(=O)(=O)N3CCCC3)cc12; Compound NOT metabolized
O=C(NCc1ccccc1)OCCO [BURAMATE]; Compound NOT metabolized
Nc1nc(NC2CC2)c2ncn([C@H]3C=C[C@@H](CO)C3)c2n1.Nc1nc(NC2CC2)c2ncn([C@H]3C=C[C@@H](CO)C3)c2n1.O=S(=O)(O)O [ABACAVIR SULFATE]; Compound NOT metabolized
C=C[C@H]1CN2CC[C@H]1C[C@H]2[C@H](O)c1ccnc2ccc(OC)cc12.C=C[C@H]1CN2CC[C@H]1C[C@H]2[C@H](O)c1ccnc2ccc(OC)cc12.O.O.O=S(=O)(O)O [QUININE SULFATE]; Compound NOT metabolized
COc1ccc2[nH]c([S+]([O-])Cc3ncc(C)c(OC)c3C)nc2n1 (centres undefined); Compound metabolized

Query string: Identify Bacterial Biotransformation associated with the compound CN(C(=O)CN(CCO)CC(=O)N(C)C(C)(C)Cc1ccccc1)C(C)(C)Cc1ccccc1
Result string: Compound NOT metabolized

Query string: Identify Bacterial Biotransformation associated with the compound OC(CCN1CCCCC1)(c1ccccc1)C1CC2C=CC1C2 (centres undefined)
Result string: Compound NOT metabolized

Query string: Identify Bacterial Biotransformation associated with the compound O=C([O-])C[C@H](O)C[C@H](O)/C=C/c1c(C2CC2)nc2ccccc2c1-c1ccc(F)cc1.O=C([O-])C[C@H](O)C[C@H](O)/C=C/c1c(C2CC2)nc2ccccc2c1-c1ccc(F)cc1.[Ca+2]
Result string: Compound NOT metabolized
